biological target: HA of A/Puerto Rico/8/34 (H1N1) (influenza A virus, UniProt P03452 18-565); assay: cell-based or functional assay
Sequence (P03452 18-565 limits assumed): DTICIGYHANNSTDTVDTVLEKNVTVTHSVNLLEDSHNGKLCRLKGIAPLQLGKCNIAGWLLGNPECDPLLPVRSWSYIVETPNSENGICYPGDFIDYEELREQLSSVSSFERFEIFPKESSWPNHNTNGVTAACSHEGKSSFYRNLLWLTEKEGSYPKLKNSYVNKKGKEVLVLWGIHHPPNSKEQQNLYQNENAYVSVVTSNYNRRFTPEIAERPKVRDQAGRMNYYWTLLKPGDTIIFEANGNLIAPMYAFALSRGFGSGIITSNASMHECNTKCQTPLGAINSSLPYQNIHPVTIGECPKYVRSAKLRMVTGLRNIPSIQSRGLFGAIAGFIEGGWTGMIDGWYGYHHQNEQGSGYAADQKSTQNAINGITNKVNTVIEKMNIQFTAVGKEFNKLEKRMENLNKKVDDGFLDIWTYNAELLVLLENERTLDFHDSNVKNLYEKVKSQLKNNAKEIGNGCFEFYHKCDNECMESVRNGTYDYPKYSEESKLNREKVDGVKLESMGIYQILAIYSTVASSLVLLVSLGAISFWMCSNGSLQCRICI
Below, each entry is listed with its recorded Neutralization IC50, H1-PR34.
Note: unit µg/mL is implicit; provide only the numeric part.

Previously resolved entries follow.
binder="Antibody 6 (antibody, V domains shown) VH: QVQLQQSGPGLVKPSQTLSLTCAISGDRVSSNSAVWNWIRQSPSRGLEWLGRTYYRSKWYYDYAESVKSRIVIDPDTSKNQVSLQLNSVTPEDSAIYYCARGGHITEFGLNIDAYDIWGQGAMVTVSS VL: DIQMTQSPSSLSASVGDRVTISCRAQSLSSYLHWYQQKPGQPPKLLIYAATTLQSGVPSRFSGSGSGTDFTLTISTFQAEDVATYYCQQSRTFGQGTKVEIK" number=4.37
binder="Antibody 5 (antibody, V domains shown) VH: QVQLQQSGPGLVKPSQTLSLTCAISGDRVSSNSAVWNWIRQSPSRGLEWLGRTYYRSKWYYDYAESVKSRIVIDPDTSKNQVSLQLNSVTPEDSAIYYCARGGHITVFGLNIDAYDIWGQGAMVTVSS VL: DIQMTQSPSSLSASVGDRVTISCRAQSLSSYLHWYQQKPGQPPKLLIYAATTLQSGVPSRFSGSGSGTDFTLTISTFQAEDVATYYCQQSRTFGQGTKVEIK" number=1.13
binder="Antibody 10 (antibody, V domains shown) VH: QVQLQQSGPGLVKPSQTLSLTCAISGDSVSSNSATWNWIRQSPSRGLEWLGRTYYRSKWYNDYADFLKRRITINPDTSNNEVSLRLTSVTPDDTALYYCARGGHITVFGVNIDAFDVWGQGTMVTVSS VL: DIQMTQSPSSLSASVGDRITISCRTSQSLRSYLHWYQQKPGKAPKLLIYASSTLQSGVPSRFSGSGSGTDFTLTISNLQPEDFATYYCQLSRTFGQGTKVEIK" number=2.15
binder="Antibody 8 (antibody, V domains shown) VH: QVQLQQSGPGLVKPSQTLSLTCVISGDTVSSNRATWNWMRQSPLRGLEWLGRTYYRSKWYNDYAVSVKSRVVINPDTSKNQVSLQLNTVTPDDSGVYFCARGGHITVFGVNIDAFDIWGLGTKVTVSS VL: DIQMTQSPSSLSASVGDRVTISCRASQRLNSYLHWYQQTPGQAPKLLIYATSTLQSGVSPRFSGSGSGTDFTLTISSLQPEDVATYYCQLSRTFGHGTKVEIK" number=3.02

QUERY: Fill in: Neutralization IC50, H1-PR34 of Antibody 3 (antibody, V domains shown) VH: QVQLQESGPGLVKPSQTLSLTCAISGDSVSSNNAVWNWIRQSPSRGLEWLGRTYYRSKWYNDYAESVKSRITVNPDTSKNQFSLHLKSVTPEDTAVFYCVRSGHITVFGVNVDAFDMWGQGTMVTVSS VL: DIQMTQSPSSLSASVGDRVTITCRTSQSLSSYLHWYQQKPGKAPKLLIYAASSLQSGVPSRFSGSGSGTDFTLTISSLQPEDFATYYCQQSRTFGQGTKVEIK is ___
RESULT: 1.07
